Target desc: 5-hydroxytryptamine receptor 4 (Rattus norvegicus)
Sequence (Q62758 whole entry): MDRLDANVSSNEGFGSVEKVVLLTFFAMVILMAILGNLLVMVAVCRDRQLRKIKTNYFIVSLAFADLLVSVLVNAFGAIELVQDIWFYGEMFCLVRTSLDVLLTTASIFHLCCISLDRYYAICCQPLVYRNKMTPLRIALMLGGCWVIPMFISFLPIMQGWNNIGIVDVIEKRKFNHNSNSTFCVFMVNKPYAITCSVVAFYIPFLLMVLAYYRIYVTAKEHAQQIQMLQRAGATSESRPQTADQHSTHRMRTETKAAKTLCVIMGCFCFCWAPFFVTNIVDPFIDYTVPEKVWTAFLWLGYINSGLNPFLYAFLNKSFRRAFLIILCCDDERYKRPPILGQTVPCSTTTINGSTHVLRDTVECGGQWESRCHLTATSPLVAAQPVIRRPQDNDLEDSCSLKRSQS
Items are presented alongside their recorded pKi.
Here pKi is given on a logarithmic scale as minus log10 of the concentration in mol/L.

- Compound: "COc1ccc2[nH]cc(CCN)c2c1"
  Measure: "pKi"
  Experimental value: 6.91
- Compound: "NCCc1c[nH]c2ccc(C(N)=O)cc12 [[3H]-5-carboxamidotryptamine]"
  Measure: "pKi"
  Experimental value: 5.04
- Compound: "COc1cc(N)c(Cl)cc1C(=O)NC1CN2CCC1CC2 (centres undefined) [ZACOPRIDE,R]"
  Measure: "pKi"
  Experimental value: 6.73

Measured pKi, CC(C)n1c(=O)n(C(=O)NC2CC3CCC(C2)N3C)c2ccccc21 (centres undefined) : 7.72
